Entries and their measured concentration at 24 h follow.
ASSAY_PROCEDURE: Bone marrow concentration in 28 day OVCAR-3 xenograft study
Assay type: in vivo, mice
CONDITION_DESCRIPTION: NOD SCID, mouse, 30 mg/kg QD oral, 28 day study, read-out: Bone marrow concentration at 24 h post-last dose
Write down the numeric answer in ng/g and omit the unit.

## Input Return reported concentration at 24 h; argument: Cc1cc(NC(=O)c2ccc(NS(=O)(=O)CCO)cc2N2CCC3(CC2)CC3)nc(N2CCC(F)(F)CC2)n1 [Compound A, reference compound]
## Output 4100

## Input I have this compound here, Cc1cc(NC(=O)c2ccc(NS(=O)(=O)CCO)cc2N2CC[C@@]3(C(F)F)C[C@H]3C2)nc(N2CCC(F)(F)CC2)n1 (single isomer, unassigned) [Example 29b] , and I need its recorded concentration at 24 h.
## Output 900

====

Dear all, this message contains IC50 results, target or system KIF18A (Homo sapiens (Human)).

Recorded IC50, per entry:
Cc1cc(NC(=O)c2ccc(NS(C)(=O)=O)cc2N2CC[Si](C)(C)CC2)nc(N2CC(F)(F)C2)c1; 100 to 500 nM
Cc1cc(NC(=O)c2ccc(NS(=O)(=O)CCO)cc2N2CCC3(C)C(C2)C3(F)F)nc(N2CCC(F)(F)CC2)n1 (centres unmarked); < 100 nM
C[Si]1(C)CCN(c2cc(NS(C)(=O)=O)ccc2C(=O)Nc2cccc(OC[C@@H](O)C(F)(F)F)n2)CC1; < 100 nM

## Input Hello, I am looking for reported IC50 with KIF18A (Homo sapiens (Human)) for CNCCS(=O)(=O)Nc1ccc(C(=O)Nc2cccc(N3CCC(F)(F)CC3)n2)c(N2CC[Si](C)(C)CC2)c1 . Could you help?
## Output < 100 nM

## Input Report IC50 for C[Si]1(C)CCN(c2cc(NS(=O)(=O)CCO)c(F)cc2C(=O)Nc2cccc(N3CCC(F)(F)CC3)n2)CC1 tested on KIF18A (Homo sapiens (Human)).
Sequence (Q8NI77 1-367): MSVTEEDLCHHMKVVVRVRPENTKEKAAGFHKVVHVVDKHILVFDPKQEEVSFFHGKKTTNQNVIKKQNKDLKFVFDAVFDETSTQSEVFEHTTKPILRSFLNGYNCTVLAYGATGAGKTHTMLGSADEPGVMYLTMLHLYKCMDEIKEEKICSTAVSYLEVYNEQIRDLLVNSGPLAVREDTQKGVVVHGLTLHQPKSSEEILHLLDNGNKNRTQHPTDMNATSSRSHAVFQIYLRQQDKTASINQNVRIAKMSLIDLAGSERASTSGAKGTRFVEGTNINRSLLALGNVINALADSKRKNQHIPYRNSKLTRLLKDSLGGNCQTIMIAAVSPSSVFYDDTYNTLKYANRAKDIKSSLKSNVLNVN
Sequence (P02550 whole entry partner): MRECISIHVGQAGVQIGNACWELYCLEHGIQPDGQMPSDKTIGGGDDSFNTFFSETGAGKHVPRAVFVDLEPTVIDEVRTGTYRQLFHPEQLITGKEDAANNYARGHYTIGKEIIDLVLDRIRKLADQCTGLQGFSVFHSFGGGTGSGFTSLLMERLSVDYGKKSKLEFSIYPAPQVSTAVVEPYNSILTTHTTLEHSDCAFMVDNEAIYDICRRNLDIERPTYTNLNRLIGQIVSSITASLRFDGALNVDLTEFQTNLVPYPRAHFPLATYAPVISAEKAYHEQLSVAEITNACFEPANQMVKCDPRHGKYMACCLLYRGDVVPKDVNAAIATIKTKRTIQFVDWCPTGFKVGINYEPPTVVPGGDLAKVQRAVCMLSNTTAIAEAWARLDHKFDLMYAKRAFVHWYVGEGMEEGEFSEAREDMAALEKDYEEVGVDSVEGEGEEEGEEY
Sequence (P02554 whole entry partner): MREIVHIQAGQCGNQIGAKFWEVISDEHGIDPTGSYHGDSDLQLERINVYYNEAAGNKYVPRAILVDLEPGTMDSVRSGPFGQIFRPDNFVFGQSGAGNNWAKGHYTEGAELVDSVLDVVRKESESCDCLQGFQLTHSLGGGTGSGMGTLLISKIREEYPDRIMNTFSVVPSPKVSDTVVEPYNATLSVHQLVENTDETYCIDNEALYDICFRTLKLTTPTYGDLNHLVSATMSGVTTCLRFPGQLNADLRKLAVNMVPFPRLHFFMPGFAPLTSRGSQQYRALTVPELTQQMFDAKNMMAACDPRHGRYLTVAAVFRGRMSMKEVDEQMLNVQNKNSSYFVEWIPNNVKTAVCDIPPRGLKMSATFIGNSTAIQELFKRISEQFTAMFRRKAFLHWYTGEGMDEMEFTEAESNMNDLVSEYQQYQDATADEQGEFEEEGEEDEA
## Output < 100 nM

====

ASSAY_PROCEDURE: In vivo pharmacokinetic evaluation in mouse
Set-up: species or system female balb/c nude mice
CONDITION_DESCRIPTION: female, balb/c nude, plasma, 10 mg/kg PO
Quick reference for Cmax among some compounds
Numeric answer only, unit ng/mL assumed.

## Input // lookup Cmax for Cc1cc(NC(=O)c2ccc(NS(=O)(=O)CCO)cc2N2CC[Si](C)(C)CC2)nc(N2CCC(F)(F)CC2)n1
## Output 3100

## Input Please look up its Cmax: Cc1cc(NC(=O)c2ccc(NS(=O)(=O)CCO)cc2N2CC[C@@]3(C(F)F)C[C@H]3C2)nc(N2CCC(F)(F)CC2)n1 (single isomer, unassigned) [Example 29b]
## Output 4700

## Input So what does the record say about Cmax for Cc1cc(NC(=O)c2ccc(NS(=O)(=O)CCO)cc2N2CC[Si](C)(C)CC2)nc(C2CCC(F)(F)CC2)n1 ?
## Output 2900

## Input Any idea what its Cmax is? The compound is Cc1cc(NC(=O)c2ccc(NS(=O)(=O)CCO)cc2N2CC[C@@]3(F)CC[C@H]3C2)nc(N2CCC(F)(F)CC2)n1 (single isomer, unassigned) [Example 50b]
## Output 10100

====

Test system: OVCAR-3 cells
ASSAY_PROCEDURE: In vitro anti-proliferative activity assay in cancer cell line OVCAR-3 (CellTiter-Glo, 4- or 7-day)
Assay type: cell-based
CONDITION_DESCRIPTION: Homo sapiens, OVCAR-3, 168 h, 7-day assay; read-out: OVCAR-3 cellular antiproliferation assay IC50
Measured IC50 accompanies every entry in the list below.

C[Si]1(C)CCN(c2cc(NS(=O)(=O)CCO)ccc2C(=O)Nc2ccnc(S(=O)(=O)C3CCCC3)n2)CC1 [Example 89]; 100 to 500 nM
C[Si]1(C)CCN(c2cc(S(=O)(=O)CCO)ccc2C(=O)Nc2cccc(OC[C@@H](O)C(F)(F)F)n2)CC1 [Example 129]; 100 to 500 nM
C[Si]1(C)CCN(c2cc(S(=O)(=O)NCCO)ccc2C(=O)Nc2cccc(OCCC(F)(F)F)n2)CC1 [Example 99]; < 100 nM
Cc1cc(NC(=O)c2ccc(S(=O)(=O)NCCO)cc2N2CC[C@]3(C)C[C@@H]3C2)nc(N2CCC(F)(F)CC2)n1 [Example 52]; 100 to 500 nM
Cc1cc(NC(=O)c2ccc(NS(=O)(=O)CCO)cc2N2CC[C@@]3(C(C)(F)F)C[C@H]3C2)nc(N2CCC(F)(F)CC2)n1 [Example 80]; 100 to 500 nM
Cc1cc(NC(=O)c2ccc(NS(=O)(=O)N(C)CCO)cc2N2CC[Si](C)(C)CC2)nc(N2CCC(F)(F)CC2)n1 [Example 134]; 100 to 500 nM
Cc1cc(NC(=O)c2ccc(S(=O)(=O)NCCO)cc2N2CC[C@@]3(C(F)F)C[C@H]3C2)nc(N2CCC(F)(F)CC2)n1 [Example 78]; 100 to 500 nM
Cc1cc(NC(=O)c2ccc(NS(=O)(=O)C(C)CO)cc2N2CC[Si](C)(C)CC2)nc(N2CC(F)(F)C2)c1 (stereo not shown) [Example 114]; < 100 nM
Cc1cc(NC(=O)c2ccc(NS(=O)(=O)CCO)cc2N2CC[Si](C)(C)CC2)nc(N2CCC(F)(F)CC2)c1F [Example 133]; 100 to 500 nM
Cc1cc(NC(=O)c2ccc(NS(=O)(=O)CCO)cc2N2CC[C@]3(C(C)(F)F)C[C@@H]3C2)nc(N2CCC(F)(F)CC2)n1 [Example 79]; > 1000 nM

## Input Using the record for Cc1cc(NC(=O)c2c(F)cc(NS(=O)(=O)CCO)c(F)c2N2CC[Si](C)(C)CC2)nc(N2CCC(F)(F)CC2)n1 [Example 116] , report its IC50.
## Output > 1000 nM

## Input Requested field: IC50. Item: O=C(Nc1ccnc(N2CCC(F)(F)CC2)n1)c1c(F)cc(NS(=O)(=O)CCO)cc1N1CC[C@]2(C(F)F)C[C@@H]2C1 [Example 69]
## Output > 1000 nM

## Input Which value of IC50 has been reported for C[Si]1(C)CCN(c2cc(NS(=O)(=O)CCO)ccc2C(=O)Nc2cccc(OCC(O)C(F)(F)F)n2)CC1 (stereo not shown) [Example 119] in the records?
## Output < 100 nM

====

System: OVCAR-3 cells
ASSAY_PROCEDURE: In vitro anti-proliferative activity assay in cancer cell line OVCAR-3 (CellTiter-Glo, 4- or 7-day)
Format: cell-based
CONDITION_DESCRIPTION: Homo sapiens, OVCAR-3, 168 h, 7-day assay; read-out: OVCAR-3 cellular antiproliferation assay IC50
pIC50: −log10 of the molar value.
Each entry below carries its recorded pIC50.

Cc1cc(NC(=O)c2ccc(NS(=O)(=O)NCCO)cc2N2CC[C@]3(C(F)F)C[C@@H]3C2)nc(N2CCC(F)(F)CC2)n1; 6.30 to 7.00

# ---- query molecule ----
## Input Fill in: pIC50 of Cc1cc(NC(=O)c2ccc(NS(=O)(=O)CCO)cc2N2CC[C@]3(C(F)F)C[C@@H]3C2)nc(N2CCC(F)(F)CC2)n1 is ___
## Output > 7.00

====

Each entry below carries its recorded pIC50.
TEST_SYSTEM: KIF18A (Homo sapiens (Human))
pIC50: −log10 of the molar value.

Record excerpt, results attached:
CC(C)(C)NS(=O)(=O)c1cccc(NC(=O)c2ccc(NS(=O)(=O)C(C)(C)C)cc2N2CC[Si](C)(C)CC2)c1; 6.00 to 6.30
Cc1cc(NC(=O)c2ccc(NS(=O)(=O)CCO)cc2N2CC[Si](C)(C)CC2)nc(N2CCOC(F)(F)C2)n1; > 7.00

## Input Please tell me: pIC50 of C[Si]1(C)CCN(c2cc(S(=O)(=O)CCO)ccc2C(=O)Nc2cccc(OC[C@H](O)C(F)(F)F)n2)CC1 , system KIF18A (Homo sapiens (Human))?
## Output > 7.00

====

Tested on: OVCAR-3 cells
ASSAY_PROCEDURE: In vitro anti-proliferative activity assay in cancer cell line OVCAR-3 (CellTiter-Glo, 4- or 7-day)
Format: cell-based
CONDITION_DESCRIPTION: Homo sapiens, OVCAR-3, 168 h, 7-day assay; read-out: OVCAR-3 cellular antiproliferation assay IC50
PROPERTY_NAME: IC50

See these solved cases before continuing.
CC[Si]1(CC)CCN(c2ncccc2C(=O)Nc2cccc(S(=O)(=O)N3CCC(F)(F)CC3)c2)CC1 [Example 92]; > 1000 nM
Cc1cc(NC(=O)c2cc(F)c(NS(=O)(=O)CCO)cc2N2CC[Si](C)(C)CC2)nc(N2CCC(F)(F)CC2)c1 [Example 107]; < 100 nM

Please find the next compound below.
## Input # IC50 lookup, item COC[C@]12CCN(c3cc(NS(=O)(=O)CCO)ccc3C(=O)Nc3cc(C)nc(N4CCC(F)(F)CC4)n3)C[C@H]1C2 (single isomer, unassigned) [Example 49a]
## Output 100 to 500 nM
